Consider the following compounds and their measured log10(solubility kinetic) readings.
details: buffer; pH 7.4; 200.0 µM
Readout: log10(solubility kinetic) (log10 of the value in µg/mL)

{"Compound": "COc1ccc(OC)c2c(C)cc(N3CCCCCC3)nc12", "log10(solubility kinetic)": 0.80}
{"Compound": "Cc1ccc(Cl)cc1NC(=O)COc1ccccc1", "log10(solubility kinetic)": 0.28}
{"Compound": "CCc1cccc(NC(=S)N(CCOC)C(C)c2ccco2)c1 (centres undefined)", "log10(solubility kinetic)": 0.90}
{"Compound": "CC(C)CCN1CCN(Cc2ccoc2)CC1CCO (centres undefined)", "log10(solubility kinetic)": 1.47}
{"Compound": "O=C(NC1CCCCC1)c1ccc2c(c1)OCCO2", "log10(solubility kinetic)": 1.54}
{"Compound": "Oc1ccc(Cl)cc1C=Nc1ccc(Br)cc1", "log10(solubility kinetic)": 1.33}
{"Compound": "O=C(CN1C(=O)NC(c2ccccc2)(c2ccccc2)C1=O)N1CCCCC1", "log10(solubility kinetic)": 0.79}
{"Compound": "O=C(OCC(=O)N1CCCCC1)c1cc(S(=O)(=O)N2CCOCC2)c(Cl)cc1Cl", "log10(solubility kinetic)": 1.83}
{"Compound": "O=C(O)Cn1c(Cc2ccccc2)nc2ccccc21", "log10(solubility kinetic)": 1.35}
{"Compound": "NC(=O)COc1ccc(NC(=O)CC23CC4CC(CC(C4)C2)C3)cc1", "log10(solubility kinetic)": 0.95}
{"Compound": "Cc1ccc(C(C)NC(=O)c2cc3ccccc3oc2=O)cc1C (centres undefined)", "log10(solubility kinetic)": -0.10}
{"Compound": "CCc1ccc(C(C)NC(=O)c2cccs2)cc1 (centres undefined)", "log10(solubility kinetic)": 0.95}
{"Compound": "COCC(=O)OCc1cc2cccc(C)c2[nH]c1=O", "log10(solubility kinetic)": 1.59}
